These data points were gathered from patent US4372970A.

- Tested on: Megoura vicae
- EXPERIMENT SUMMARY: Knockdown of Megoura vicae (dip test)
- Assay type: in vivo
- CONDITION NOTES: Megoura vicae adults, knockdown after 24 hours
- Procedure: The activities of some of the compounds of the Examples has been shown in the following tests in three species of phytophagous arthropods, namely Megoura vicae, Plutella xylostella, Tetranychus cinnabarinus. […] Adult insects were dipped individually for 4 seconds in the aqueous suspension of test compound and then placed on a filter paper in a Petri dish (9.0 cm diameter) with a p.t.f.e. rim. […] Knockdown was recorded after 24 hours.
# key: entry, value: Megoura % KD at 1.0 ppm

{"COMPOUND": "Cc1oc2cc(C(C(=O)OCc3cccc(Oc4ccccc4)c3)C(C)C)ccc2c1C (stereo not shown)", "ASSAY SYSTEM": "Megoura vicae", "Megoura % KD at 1.0 ppm, %": 90}
{"COMPOUND": "CC(C)C(C(=O)OC(C#N)c1cccc(Oc2ccccc2)c1)c1ccc(Cl)c2occc12 (stereo not shown)", "ASSAY SYSTEM": "Megoura vicae", "Megoura % KD at 1.0 ppm, %": 15}
{"COMPOUND": "CC(C)C(C(=O)OC(C#N)c1cccc(Oc2ccccc2)c1)c1ccc2ccoc2c1 (stereo not shown)", "ASSAY SYSTEM": "Megoura vicae", "Megoura % KD at 1.0 ppm, %": 97.5}
{"COMPOUND": "CC(C)C(C(=O)OC(C#N)c1cccc(Oc2ccccc2)c1)c1ccc2c(Cl)coc2c1 (stereo not shown)", "ASSAY SYSTEM": "Megoura vicae", "Megoura % KD at 1.0 ppm, %": 98.3}
{"COMPOUND": "CC(C)C(C(=O)OC(C#N)c1cccc(Oc2ccccc2)c1)c1ccc2c(c1)CCO2 (stereo not shown)", "ASSAY SYSTEM": "Megoura vicae", "Megoura % KD at 1.0 ppm, %": 0}
{"COMPOUND": "CC(C)C(C(=O)OC(C#N)c1cccc(Oc2ccccc2)c1)c1ccc2occc2c1 (stereo not shown)", "ASSAY SYSTEM": "Megoura vicae", "Megoura % KD at 1.0 ppm, %": 93.75}
{"COMPOUND": "CC(C)C(C(=O)OC(C#N)c1cccc(Oc2ccccc2)c1)c1cccc2occc12 (stereo not shown)", "ASSAY SYSTEM": "Megoura vicae", "Megoura % KD at 1.0 ppm, %": 66.9}
